The origin of these recorded values is patent US5843908A.

molecules and their reported MIC
# System: Aspergillus fumigatus IAM 2034
# method_summary: In vitro antifungal activity, serial agar dilution, yeast morphology agar (Tables 4b, 4c)
# Type: cell-based
# reported_conditions: IAM2034, 60 h, 1/15 M phosphate buffer, 10^6 cells/ml, 40 hours at 28° C.
Note: state the figure and append the unit.

Previously resolved entries follow.
molecule	MIC
CN[C@@H]1[C@H](O[C@@H]2OC[C@@H](O)[C@H](O)[C@H]2O)[C@@H](O)[C@H](O[C@H]2c3cc(C)c(C(=O)N[C@H](C)C(=O)O)c(O)c3-c3c(cc4c(c3O)C(=O)c3cc(OC)cc(O)c3C4=O)[C@@H]2O)O[C@@H]1C [Pradimicin A, pradimicin A, reference compound]	1.6 µg/mL
CN[C@@H]1[C@H](O[C@@H]2O[C@H](CO)[C@@H](O)[C@H](O)[C@H]2O)[C@@H](O)[C@H](O[C@H]2c3cc(C)c(C(=O)N[C@H](CO)C(=O)O)c(O)c3-c3c(cc4c(c3O)C(=O)c3cc(OC)cc(O)c3C4=O)[C@@H]2O)O[C@@H]1C [Pradimicin FL, pradimicin FL]	3.1 µg/mL
CN[C@@H]1[C@H](O[C@@H]2O[C@H](CO)[C@@H](O)[C@H](O)[C@H]2O)[C@@H](O)[C@H](O[C@H]2c3cc(C)c(C(=O)N[C@H](C)C(=O)O)c(O)c3-c3c(cc4c(c3O)C(=O)c3cc(OC)cc(O)c3C4=O)[C@@H]2O)O[C@@H]1C [Pradimicin L, pradimicin L]	3.1 µg/mL

Okay, next one:
-- ask Quick one: MIC of COc1cc(O)c2c(c1)C(=O)c1c(cc3c(c1O)-c1c(cc(C)c(C(=O)N[C@H](CO)C(=O)O)c1O)[C@H](O[C@@H]1O[C@H](C)[C@H](N(C)C)[C@H](O[C@@H]4O[C@H](CO)[C@@H](O)[C@H](O)[C@H]4O)[C@H]1O)[C@H]3O)C2=O [N-Methyl Pradimicin FL] ?
-- reply 6.3 µg/mL

----------
# Test system: Candida tropicalis 85-8 (Kitasato)
# method_summary: In vitro antifungal activity, serial agar dilution, yeast morphology agar (Tables 4b, 4c)
# Type: cell-based
# reported_conditions: 60 h, 1/15 M phosphate buffer, 10^6 cells/ml, 40 hours at 28° C.
Listed molecules paired with reported MIC
Field format: number, assumed µg/mL, no unit text.

Recorded MIC, per entry:
molecule	subject_of_test	reading_unit	numeric_readout
COc1cc(O)c2c(c1)C(=O)c1c(cc3c(c1O)-c1c(cc(C)c(C(=O)N[C@H](CO)C(=O)O)c1O)[C@H](O[C@@H]1O[C@H](C)[C@H](N(C)C)[C@H](O[C@@H]4O[C@H](CO)[C@@H](O)[C@H](O)[C@H]4O)[C@H]1O)[C@H]3O)C2=O [N-Methyl Pradimicin FL]	Candida tropicalis 85-8 (Kitasato)	µg/mL	12.5
CN[C@@H]1[C@H](O[C@@H]2OC[C@@H](O)[C@H](O)[C@H]2O)[C@@H](O)[C@H](O[C@H]2c3cc(C)c(C(=O)N[C@H](C)C(=O)O)c(O)c3-c3c(cc4c(c3O)C(=O)c3cc(OC)cc(O)c3C4=O)[C@@H]2O)O[C@@H]1C [Pradimicin A, pradimicin A, reference compound]	Candida tropicalis 85-8 (Kitasato)	µg/mL	12.5

Read the next record carefully.
-- ask Fill in: MIC of CN[C@@H]1[C@H](O[C@@H]2O[C@H](CO)[C@@H](O)[C@H](O)[C@H]2O)[C@@H](O)[C@H](O[C@H]2c3cc(C)c(C(=O)N[C@H](CO)C(=O)O)c(O)c3-c3c(cc4c(c3O)C(=O)c3cc(OC)cc(O)c3C4=O)[C@@H]2O)O[C@@H]1C [Pradimicin FL, pradimicin FL] is ___
-- reply 6.3
